MEASURE_NAME: melting point

[
  {
    "MOLECULE": "CSc1nsc(SC)c1C(=O)Nc1ccc(Cl)cc1",
    "MEAS_VALUE": "168 to 170 °C"
  }
]

Recorded melting point (molecule "C[C@]12CC(=O)C[C@@]1(C)CC(=O)C2" ): 228 to 230 °C

Recorded melting point (molecule "O=Cc1cccc(NS(=O)(=O)c2ccccc2)c1" ): 104 to 108 °C

Recorded melting point (molecule CC1(c2ccccc2)CC(C(=NOCC(=O)c2ccccc2)c2cc3ccccc3o2)C1 (centres undefined) ): 154 to 155 °C

----------
This section presents compounds with their documented melting point values.

Recorded melting point (compound "CCCNC(N)=S" ): 120 to 123 °C

Recorded melting point (compound "Cc1cc(C(=O)Nc2ccccc2)no1" ): 136 to 139 °C

Recorded melting point (compound "COC(=O)[C@H](CCC(=O)O)NC(=O)OCc1ccccc1" ): 68 to 70 °C

Recorded melting point (compound "Nc1ccc(C(F)(F)F)nc1" ): 39 to 40 °C

Recorded melting point (compound "O=C(C=Cc1ccc(Br)cc1)c1ccc(Cl)cc1" ): 167 to 168 °C

Recorded melting point (compound "Brc1cccc(COc2ccccc2)c1" ): 38 to 39 °C

Values from a melting point compilation (Tetko et al.)
